Tested on: Malme-3M
Experiment: NCI tumour cell line growth inhibition, 48 h
Active and inactive are the calls of the source. Cut-off read from the data, not from the text of the source: active = GI50 up to about 1.1 µM and inactive = higher.
Outcomes: true (1) (active), false (0) (inactive)

{"columns": ["compound", "classification"],
 "data": [
  ["O=C(O)c1cc(=O)c2[nH]c3ccccc3c2s1", "false (0)"],
  ["COc1c(O)c2c(c3cc(C(=O)N4CCc5c4c(O)c(OC)c4[nH]c(C(=O)N6CC7CC78C6=CC(=O)c6[nH]cc(C)c68)cc54)[nH]c13)CCN2C(N)=O (stereo unspecified)", "true (1)"],
  ["COc1cccc(C=C2N=C(c3ccccc3)N(n3c(-c4ccccc4)nc4ccccc4c3=O)C2=O)c1", "false (0)"],
  ["N#CC(NCCc1ccccc1)c1ccc(C(C#N)NCCc2ccccc2)cc1 (stereo unspecified)", "false (0)"],
  ["C/C(=C1/N=C(c2ccccc2)OC1=O)c1cccs1", "false (0)"],
  ["Fc1nc(F)nc(-c2c3ccccc3c3n2CCS3)n1", "false (0)"],
  ["O=C(O)CSc1nnc(/C=C/c2ccccc2)[nH]1", "false (0)"],
  ["COc1cc(Cl)cc(O)c(=O)c1OC", "false (0)"],
  ["O=C(Nc1nc(C23CC4CC(CC(C4)C2)C3)cs1)c1cc2c(ccc3ccccc32)oc1=O", "false (0)"],
  ["CN(C)CC(NC(NCS)C(=O)NCCNc1ccc(NCCNC(=O)C(NCS)NC(CN(C)C)OCCl)c2c1C(=O)c1c(O)ccc(O)c1C2=O)OCCl (stereo unspecified)", "true (1)"],
  ["CCOC(=O)CON=c1c2ccccc2ccc2ccccc12", "false (0)"]
]}

====

Tested on: TK-10
Assay: NCI tumour cell line growth inhibition, 48 h
Calls of active or inactive are those of the source. Rule as the data show it: active = GI50 up to about 1.1 µM and inactive = higher.
Measured GI50, listed per entry for reference.

{"columns": ["molecule", "GI50"],
 "data": [
  ["Nc1cccc2nsnc12", "> 100 µM (inactive)"],
  ["O=C(Nc1ccc(F)cc1)C(=O)C(C1OC(=O)c2ccccc21)[N+](=O)[O-] (centres undefined)", "> 100 µM (inactive)"],
  ["NCCCCCS(=O)(=O)O", "> 100 µM (inactive)"],
  ["CC(OC(C)(C)C)[C@H](NC(=O)OCc1ccccc1)C(=O)NC(OCc1ccccc1)[C@H]1COC(C)(C)O1 (some centres undefined)", "> 10 µM (inactive)"],
  ["N#CCCN(CCC#N)c1ccc(/C=C2\\N=C(c3cc([N+](=O)[O-])ccc3Cl)N(S(=O)(=O)c3ccccc3)C2=O)cc1", "> 100 µM (inactive)"],
  ["CC1=NNC(=O)C1C1C(=O)NN=C(c2c[nH]c3ccccc23)C1Br (centres undefined)", "> 100 µM (inactive)"],
  ["CC1CC(=O)c2c(ccc3c2C(=O)c2cccc(O)c2C3=O)C1 (centres undefined)", "> 10 µM (inactive)"],
  ["CC(=O)O[C@H]1CC[C@@]2(C)C(=CC[C@H]3[C@@H]4C[C@H](N5CCN(C)CC5)[C@H](OC(C)=O)[C@@]4(C)CC[C@@H]32)C1", "> 100 µM (inactive)"],
  ["CCc1cccc(C(C)C)c1NC(=O)C(=O)C(Cc1nc2ccccc2nc1O)C(=O)OC (centres undefined)", "> 100 µM (inactive)"]
]}

====

Tested on: HOP-18
Assay: NCI tumour cell line growth inhibition, 48 h
Where a name gives a salt, the structure may show the parent alone. Active and inactive are the calls of the source. Rule as the data show it: active = GI50 up to about 1.1 µM and inactive = higher.
Outcomes: 1 (yes) (active), 0 (no) (inactive)

{"columns": ["compound", "classification"],
 "data": [
  ["O=C(N/C(=C\\c1ccc(/C=C(\\NC(=O)c2ccccc2)c2nc3ccccc3s2)cc1)c1nc2ccccc2s1)c1ccccc1", "0 (no)"],
  ["O=C1c2ccccc2C(=O)c2c(O)c(NCCNCCO)cc(O)c21", "0 (no)"],
  ["CCOC(=O)C(CC/C=C\\c1ccccc1)N1CCC[C@H]1C(=O)OC (stereo not given in full)", "0 (no)"],
  ["CC(=O)C(=O)NC1/C=C(C)\\C=C/C(O)C/C=C(C)\\C=C/C(O)CC2OC(=O)C1(C)C(=O)C2C (stereo not given)", "0 (no)"],
  ["Oc1ccc([Te]CCNCC[Te]c2ccc(O)cc2)cc1", "0 (no)"],
  ["CCN(CC)CCCOC(=O)/C=C/c1c(C)[nH]c(=O)[nH]c1=O", "0 (no)"],
  ["COc1ccc(/C=C/c2onc3c(=O)n(C)nc(-c4ccccc4)c23)cc1", "0 (no)"],
  ["O=C1OC(=O)C2C1C1(c3ccccc3)OC2(c2ccccc2)c2c(Br)c(Br)c(Br)c(Br)c21 (stereo not given)", "0 (no)"],
  ["Cn1c2ccccc2c(=O)c2c([N+](=O)[O-])ccc(NCCN)c21", "0 (no)"],
  ["COC1=CC(=O)C2C(C1=O)C(c1ccc(OC)c(OC)c1)[C@H]2C (stereo not given in full)", "0 (no)"],
  ["N#Cc1cc(NC(=O)c2ccccc2)c(=O)n2c1[nH]c1ccccc12", "0 (no)"],
  ["CCS(CC)(CC)CC1CCCC2=CCC(P(=O)(c3ccccc3)c3ccccc3)CC21 (stereo not given)", "0 (no)"],
  ["O=C(NCCCCCCNC(=O)n1cc(F)c(=O)[nH]c1=O)NCCCOCCOCCOCCOCCOCCOCCOCCOCCOCCOCCOCCOCCOCCOCCOCCOCCOCCOCCOCCOCCOCCCNC(=O)C(O)C(O)C(OC1OC(CO)C(O)C(O)C1O)C(O)CO (stereo not given)", "0 (no)"],
  ["Nc1nc(O)c2[nH]nnc2n1", "1 (yes)"],
  ["CC(=O)OCc1cc(OC(C)=O)cnc1COC(C)=O", "0 (no)"],
  ["O=C1c2ccccc2C(=O)c2c1ccc1conc21", "0 (no)"],
  ["C1OC1C1CO1 (stereo not given)", "0 (no)"],
  ["O=C(OCCCl)C1OC(n2cc(F)c(=O)[nH]c2=O)CC1O (stereo not given)", "0 (no)"],
  ["N=c1ccn2c(n1)O[C@H]1[C@H](O)[C@@H](CO)O[C@H]12 [ANCITABINE HYDROCHLORIDE]", "0 (no)"],
  ["CCCCN(CCCC)C(=O)C(=O)C(C(=O)C(=O)OC)c1nc2ccccc2o1 (stereo not given)", "0 (no)"]
]}
